B1: glmS ribozyme (parent)
chain: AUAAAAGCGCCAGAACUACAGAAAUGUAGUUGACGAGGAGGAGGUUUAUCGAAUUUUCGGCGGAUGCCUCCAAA

Variants of: B1
Assay: self-cleavage kobs at 2500 uM GlcN6P; higher = faster cleavage; RNA array
Details: with glucosamine-6-phosphate
This sample holds only a part of the variants without activity.
Measured self-cleavage kobs at 2500 uM GlcN6P values are reported for all entries that follow.
Report the value in s⁻¹ with no unit label.

Below are worked cases with known answers.
• C16U U55A C68G = 3.34e-05
• A12U U47G U65G = 0.00179
• A12U A39C U56G = 0.00138
• A14G U56G C71U = 0.0458
• A39G U55C A64G = 0.00694

Given the entry A39G G44U A53C , report its measured self-cleavage kobs at 2500 uM GlcN6P.
0.000157

// same read-out, input: A12G G29U U47G
6.74e-05

Please give the result for G29A U47A too.
0.00153

Now this one: "A64C"
0.000127

# repeat for G29U U54A
0.00361

Similarly, A39G C68G ?
0.000286

Let us now turn to G29A U31G
0.000217

// next record "U56C"
0.00743

Then what about the variant G32A C67G ?
9.14e-05

And then G32U G66A C70A , what is it?
0.00086

Likewise for U46G A48G ?
5.4e-05

Ok, now A39C U57C
1.97e-05

Also A15G U46A ?
0.00258

Same lookup for A52G U56G , please.
0.000536

Same question, A15U C71A this time
0.000497

Origin of the recorded values: the supplement of paper PMC7125110
